Test system: MALME-3M melanoma
Experiment: NCI-60 one-dose screen, 48 h (100 = growth as untreated, 0 = no growth, -100 = all killed)
Settings: 10 µM unless noted
Compounds without any hit were thinned out: in the full panel of roughly 83,000, 20% have a hit. Active and inactive are the calls of the source. The calls were made as follows: active = growth percent below 10; inactive = the rest.
Each entry below carries its reported growth.

Below, each entry is followed by its recorded growth result.
>  <compound>
O=C(/C=C1\C(=O)N(Cc2ccccc2)c2ccccc21)c1cc2ccccc2oc1=O

>  <tested-on>
MALME-3M melanoma

>  <observed-measurement>
68.9% (inactive)

$$$$
>  <compound>
CCCCCCCCc1ccc(C(=O)Nc2cccc(O)c2)cc1

>  <tested-on>
MALME-3M melanoma

>  <observed-measurement>
77.1% (inactive)

$$$$
>  <compound>
CC[C@]12C=CCN3CC[C@]4(C(=C(C(=O)OC)C1)Nc1cc(OC)c([C@@H]5[C@H]6O[C@H]6[C@@]6(CC)CC(C(=O)OC)=C7Nc8cc(OC)ccc8[C@@]78CCN5[C@@H]68)cc14)[C@@H]32

>  <tested-on>
MALME-3M melanoma

>  <observed-measurement>
44.4% (inactive)

$$$$
>  <compound>
Nc1cc(-c2c[nH]c3ccc(Br)cc23)nc2cc(-c3c[nH]c4ccccc34)nn12

>  <tested-on>
MALME-3M melanoma

>  <observed-measurement>
-88.1% (active)

$$$$
>  <compound>
CCCCCCCCCc1ccc(C(=O)Nc2cc(C)ccc2C(=O)OC)cc1

>  <tested-on>
MALME-3M melanoma

>  <observed-measurement>
99.8% (inactive)

$$$$

I would be grateful if you could share the reported growth for CN1C(=O)C(O)(CC(=O)c2cc3ccccc3oc2=O)c2ccccc21 (stereo not drawn) .
94.7% (inactive)

I would be grateful if you could share the reported growth for Cc1ccc(N=Nc2c(N)nn3c(-c4cc5cc(Br)ccc5oc4=O)ccnc23)cc1 .
82% (inactive)
